Reference source for all entries: ChEMBL document CHEMBL3822378

# RUN_DESCRIPTION: Cytotoxicity against mouse RAW264.7 cells assessed as growth inhibition at 50 ug/ml after 72 hrs by MTT assay
# Type: cell-based
# EXPERIMENTAL_CONTEXT: read-out: GI
Label satisfied when inhibition at 72 h, 50 ug/ml >= 20%; otherwise not satisfied.

>  <SMILES_STRING>
COc1cccc(-c2cn(CC(=O)Nc3nc(-c4ccc5oc6ccccc6c5c4)cs3)nn2)c1

>  <CLASSIFICATION>
not satisfied

$$$$
>  <SMILES_STRING>
CCCCCCc1cn(CC(=O)Nc2nc(-c3ccc4oc5ccccc5c4c3)cs2)nn1

>  <CLASSIFICATION>
satisfied

$$$$
>  <SMILES_STRING>
CC(C)(C)c1ccc(-c2cn(CC(=O)Nc3nc(-c4ccc5oc6ccccc6c5c4)cs3)nn2)cc1

>  <CLASSIFICATION>
satisfied

$$$$
>  <SMILES_STRING>
O=C(Cn1cc(C2(O)CCCC2)nn1)Nc1nc(-c2ccc3oc4ccccc4c3c2)cs1

>  <CLASSIFICATION>
satisfied

$$$$
>  <SMILES_STRING>
CCCCCCCCCCCCc1cn(CC(=O)Nc2nc(-c3ccc4oc5ccccc5c4c3)cs2)nn1

>  <CLASSIFICATION>
satisfied

$$$$
